Tested on: HT29 colon
assayInfo: NCI-60 one-dose screen, 48 h (100 = growth as untreated, 0 = no growth, -100 = all killed)
conditionsUsed: 10 µM unless noted
The panel holds about 83,000 compounds, 20% with a hit somewhere; the sample as a whole holds those more often.
Each record is given Y if its reported growth is strictly below 60%. Records at or above 60% are given N.

compound	classification
N#Cc1cncc(-c2ccc3ncnc(Nc4cccc(Cl)c4)c3c2)c1	N
COc1ccc(C(=S)N2CCN(c3ccc(Cl)cc3)CC2)cc1	N
N#Cc1cccc(C2C3=C(COC3=O)N(CCO)c3cc4c(cc32)OCO4)c1 (configuration not stated)	Y
COc1ccc(NC(=O)Nc2ccc(OCCCCCC(=O)NO)cc2)cc1	N
CC1(C)CC[C@]2(CO)CC[C@]3(C)[C@H](CC[C@@H]4[C@@]5(C)CCCNC(C)(C)[C@@H]5CC[C@]43C)[C@H]2[C@H]1O	Y

Asked: Please state whether growth is below 60% for "CC1(C)CC2=C3C=C[C@@H]4[C@@]5(C)CCC(=O)C(C)(C)[C@@H]5CC[C@@]4(C)[C@]3(C)CC[C@@]2(C(=O)O)C[C@H]1O"
Given back: Y

Asked: // same read-out, input: "CCCCC#Cc1c(I)n(C)c(=O)[nH]c1=O"
Given back: Y

Asked: // same read-out, input: "Cn1cc(-c2csc(-c3cn(CCCN4CCOCC4)c4ccccc34)n2)c2cccnc21"
Given back: Y

---

Test system: PC-3 prostate
assayInfo: NCI-60 one-dose screen, 48 h (100 = growth as untreated, 0 = no growth, -100 = all killed)
conditionsUsed: 10 µM unless noted
The panel holds about 83,000 compounds, 20% with a hit somewhere; the sample as a whole holds those more often.
We use 40% as the dividing line for growth: on or above the line is rule met, below is rule not met.

Worked cases, answers included:
O=c1cc(-c2ccccc2)[nH]c2ncc(-c3ccc(F)cc3)n12 rule met
O=c1nc(-c2ccccc2)c2cc(-c3ccc(C(F)(F)F)nc3)ccc2[nH]1 rule met
COc1cc(C(=O)n2nc(N3CCOCC3)c3cc(-n4cccc4)ccc32)cc(OC)c1OC rule not met
CN1CCN(CC(=O)Nc2ccc3ncnc(Nc4ccc(Oc5cccc(C(F)(F)F)c5)c(Cl)c4)c3c2)CC1 rule met
O=C(Cc1ccc(NC(=O)c2cccc(Cl)c2)cc1)NCc1ccccc1 rule met
C=CN(C(=O)N1CCN(c2cc3c(cc2F)c(=O)c(C(=O)O)cn3C2CC2)CC1)c1nc(-c2ccc(OC)cc2)cs1 rule not met
COc1ccc(/C=C(/c2ccccc2)[N+](=O)[O-])c(OC)c1 rule not met
COc1cc(C(=O)c2c(-c3ccccc3)oc3c(OC)cccc23)cc(OC)c1OC rule not met

Field: next molecule
Asked: Item "C=C1C(=O)O[C@H]2[C@H]1CC/C(COC(=O)NCc1ccc(Cn3c(=O)sn(-c4ccc(C#N)cc4)c3=O)cc1)=C\CC[C@@]1(C)O[C@@H]21" with growth of 40% or above?
Given back: rule met

---

The entries below are paired with their reported growth.
Test system: OVCAR-5 ovarian
assayInfo: NCI-60 one-dose screen, 48 h (100 = growth as untreated, 0 = no growth, -100 = all killed)
conditionsUsed: 10 µM unless noted
About 83,000 compounds went through this panel and 20% of them were active in at least one assay; those are over-represented in the sample as a whole. The source made the active and inactive calls. Rule for the calls: active = growth percent below 10; inactive = the rest.

compound	growth
Oc1c(CN2CCOCC2)cc(COCc2ccccc2)c2cccnc12	37.8% (inactive)

Now look at this one.
Asked: Reported growth for CCCn1nc(C(=O)N(C)Cc2ccccc2)c2c1CCC(N1CCc3ccccc31)C2 (stereo not given) : what is it?
Given back: 92.2% (inactive)

Recorded values, source PubChem BioAssay (NCI).
